Where these numbers come from: the EternaBench riboswitch data

system: MS2 coat protein; assay: apparent Kd, MS2 coat protein; higher = weaker binding; RNA-MaP array; conditions: designed as: OFF switch for flavin mononucleotide; no ligand
parameter: apparent Kd (nM)

entry_sequence | subject_of_test | parameter | measured_value
GAAAGAUGAGGAUAUACAUGAGGAUCACCCAUGUGAUUAAAUUGAACACCGAAUUACUGUAGAAGGCAUAAACC | MS2 coat protein | apparent Kd | 19.9
UUUGCUACCUAGAAGGCUGACGAGACAUGAGGAUCACCCAUGUUGGAAAUUCUUACGGCAAUGGCAGAGGAUAUAGGACGAAAA | MS2 coat protein | apparent Kd | 7.66
AAAACUACAGAUACCUUAACAUGAGGAUCACCCAUGUGAGCUGAGGAUAUGUCCACGCUUUAAGGACAGAAGGCAGGAGCAUAG | MS2 coat protein | apparent Kd | 25.2
GGGCGACUGCAAGGAUAUCUCGAAGUGAGUGGCAGAGAAGGUGCACGUACAUGAGGAUCACCCAUGUGAACUUAUUGGUCAAGG | MS2 coat protein | apparent Kd | 25.2
UCGUCACAUGUUAGGAUAUUGCUAGGAUCCUAGAACAAGAAGGAACAUGAGGAUCACCCAUGUCAGUGAAUCAU | MS2 coat protein | apparent Kd | 23
ACCAUCAUUGUUAGGAUAUGUAGAGUACUGAGGCUACAGAAGGAACAUGAGGAUCACCCAUGUGUUUCGGUGUA | MS2 coat protein | apparent Kd | 31
GCAGUGCGUGAGGAUAUGUGAGUGAACACACACACAGAAGGCACAACAUGAGGAUCACCCAUGUUCCUGGUGCC | MS2 coat protein | apparent Kd | 7.62
UAGCUGCUUCAGAAGGCCGUUGGGUGAAAACGCUCCGGGUGCCACAUGAGGAUCACCCAUGUUUCGGAGGAUAUGAAAGCAUCC | MS2 coat protein | apparent Kd | 47.8
CGAGUCUAGGAGAAGGCAUACAUGAGGAUCACCCAUGUCAAAGGGCACGUAACGAUAAUCCACCAUGAGGAUAUCCUGUUUAGA | MS2 coat protein | apparent Kd | 26.3
AAAUUAAUCAGAGGAUAUAGACAUGAGGAUCACCCAUGUACCAAAAUCGCGAAGAAGGAUCCGUGCUAGAAGGCAGAAUACAUA | MS2 coat protein | apparent Kd | 10.3
UGUACAUGAGGAUCACCCAUGUUUGUAUCUUUAUCCGCGCGCAGAAGGUAGCCCAUGGAGACAGCUAAGGAUAUGCGUCACAUA | MS2 coat protein | apparent Kd | 21.5
